Biological target: Cytochrome P450 2D6 (Homo sapiens, UniProt P10635)
Sequence (P10635 whole entry): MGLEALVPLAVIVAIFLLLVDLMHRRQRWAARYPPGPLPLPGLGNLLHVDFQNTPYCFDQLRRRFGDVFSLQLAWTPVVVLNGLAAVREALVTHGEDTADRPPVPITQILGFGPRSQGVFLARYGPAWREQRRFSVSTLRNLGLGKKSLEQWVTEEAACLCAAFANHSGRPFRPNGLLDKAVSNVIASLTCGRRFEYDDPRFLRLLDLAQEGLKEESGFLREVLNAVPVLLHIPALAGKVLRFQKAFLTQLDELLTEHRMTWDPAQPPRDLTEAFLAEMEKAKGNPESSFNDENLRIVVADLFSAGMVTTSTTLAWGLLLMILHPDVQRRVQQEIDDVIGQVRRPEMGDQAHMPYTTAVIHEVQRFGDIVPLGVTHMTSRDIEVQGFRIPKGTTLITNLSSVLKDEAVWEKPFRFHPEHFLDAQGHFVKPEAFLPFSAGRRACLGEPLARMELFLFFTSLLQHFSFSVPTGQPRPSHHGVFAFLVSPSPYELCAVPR
ENDPOINT NAME: IC50

Need IC50, item Cl.NC(=O)[C@@H]1CC[C@H](c2ccc(OCc3ccccc3F)cc2)N1 [RAXATRIGINE HYDROCHLORIDE] > 100 µM

* * *

Test: Cmax in dog at 3 mg/kg, po
Type: ADME, organism-based, Canis lupus familiaris
Set-up: dose 3 mg/kg, route oral
Settings: in vivo
ENDPOINT NAME: Cmax (ng/mL)
Only the number, expressed in ng/mL, is required.

Given Cl.NC(=O)[C@@H]1CC[C@H](c2ccc(OCc3ccccc3F)cc2)N1 [RAXATRIGINE HYDROCHLORIDE] , state its recorded Cmax. 705
